viability at 28.5 h, 10 µM values for the compounds below.
# measurementNotes: in vitro
# settings: human, hela cells, % viability
Form entry: value (%) — number only.

Answered examples (6):
CN(C)c1ccc(-c2nc(C(F)(F)F)nn2C)cn1 ... 87.1
Cc1ccc(N2C(=O)CSC23C(=O)Nc2ccc(Br)cc23)cc1 (stereo not shown) ... 84.4
Cc1cn(C2CC(O)C(CO)O2)c(=O)nc1SCCC#N (stereo not shown) ... 97.5
O=c1[nH]c2ncc(-c3ccc4c(c3)OCO4)nc2n1C1CC1 ... 98.5
O=C(O)C1N(Cc2ccccc2)CCCN1Cc1ccccc1 ... 111
O=C(NC(Cc1ccccc1)C(=O)O)c1ccc(Cl)cc1 (stereo not shown) ... 96.1

[Q] Consider the compound shown here: CCCc1cc(=O)oc2cc(OCc3ccc(C(=O)O)o3)ccc12 What is its recorded viability at 28.5 h, 10 µM?
[A] 108

====

# measurementNotes: in vitro
# settings: human, hela cells, % viability
viability at 28.5 h, 10 µM values for the molecules below.
Form entry: value (%) — number only.

Answered examples (3):
COc1ccc(N2C(=O)CC(N3CCN(c4ccc(S(=O)(=O)N5CCCC5)cc4)CC3)C2=O)cc1 (stereo not shown) [CBK268851] ... 85.1
COc1c(C)cnc(CNC2CCCN(Cc3noc(C)n3)C2)c1C (stereo not shown) [CBK305350] ... 92.3
O=C(O)C1CCCN1S(=O)(=O)c1ccc(Cl)cc1 (stereo not shown) [CBK261249] ... 88.1

Next:
[Q] Consider the molecule shown here: Nc1cccc(-c2nccnc2NCc2cccs2)c1 [CBK037537] What is its recorded viability at 28.5 h, 10 µM?
[A] 104

====

# measurementNotes: in vitro
# settings: human, hela cells, % viability
Mark each entry Satisfied if its viability at 28.5 h, 10 µM sits below 90%, and Not satisfied for all others.

# count of solved cases: 4
O=C(CCOc1ccccc1)Nc1cc(N2CCNCC2)ncn1 [CBK004225T] ... Not satisfied
O=C(Nc1ccccc1C(=O)NCCCc1nc2ccccc2[nH]1)c1cccs1 ... Not satisfied
O=C(CCN1C(=O)c2cccc3cccc(c23)C1=O)N1CCN(Cc2ccc3c(c2)OCO3)CC1 ... Not satisfied
C=CCn1c(Cc2csc(NC(=O)Cc3cc(OC)c(OC)c(OC)c3)n2)n[nH]c1=S ... Satisfied

[Q] # check: viability at 28.5 h, 10 µM < 90% for Cc1nc(C)n(CC2CCCN(CC(=O)NCc3ccccn3)C2)n1 (stereo not drawn)
[A] Satisfied

====

# measurementNotes: in vitro
# settings: human, hela cells, % viability
measuredMetric: viability at 28.5 h, 10 µM (%)
Form entry: value (%) — number only.

Answered examples (8):
CCc1ccc(C(=O)NCCCN2CCOCC2)cc1 ... 104
COc1ccc(OC)c(C2C(C(=O)c3ccc(C)cc3)=C(O)C(=O)N2Cc2cccnc2)c1 (centres unmarked) ... 113
OC(CNCCNc1nccc(C(F)(F)F)n1)Cn1ccc2ccccc21 (centres unmarked) ... 106
COC(=O)Nc1sc2c(c1C(=O)N1CCOCC1)CCC(C)C2 (centres unmarked) ... 95
Cn1ncc(N2CCN(C(=O)CCN3CCCCCC3=O)CC2)cc1=O ... 109
O=C(O)CCCn1cc(NC(=O)c2ccccc2Br)cn1 ... 82.9
CS(=O)(=O)c1ccc(Nc2ccc3c(c2)COC2(CCN(C(=O)Cc4ccc(F)cc4F)C2)O3)cc1 (centres unmarked) ... 90.8
O=[N+]([O-])c1ccccc1/C=N/Nc1nnn[nH]1 ... 106

[Q] Consider the compound shown here: CC(Sc1nc2ccccc2[nH]1)c1nc2ccccc2[nH]1 (centres unmarked) What is its recorded viability at 28.5 h, 10 µM?
[A] 89.7

[Q] Consider the compound shown here: CNCC1CCN(C(=O)c2ccc(Oc3cccnc3)cc2)C1 (centres unmarked) What is its recorded viability at 28.5 h, 10 µM?
[A] 91.5

[Q] Consider the compound shown here: O=C(Nc1cc2ccccc2c(Br)n1)c1ccc(C(F)(F)F)cc1[N+](=O)[O-] What is its recorded viability at 28.5 h, 10 µM?
[A] 92.5

[Q] Consider the compound shown here: CC(CC(=O)O)CC(=O)N1CCCC1c1nc(-c2ccc(F)cc2)c2ccccn12 (centres unmarked) What is its recorded viability at 28.5 h, 10 µM?
[A] 99.4

[Q] Consider the compound shown here: CSc1ccccc1NC(=O)c1cccn(Cc2ccc(C)cc2)c1=O What is its recorded viability at 28.5 h, 10 µM?
[A] 87

[Q] Consider the compound shown here: Cc1ccc(C)c2c1CCCC2N1CCC(NS(C)(=O)=O)CC1 (centres unmarked) What is its recorded viability at 28.5 h, 10 µM?
[A] 103

====

# measurementNotes: in vitro
# settings: human, hela cells, % viability
measuredMetric: viability at 28.5 h, 10 µM (%)
Form entry: value (%) — number only.

Answered examples (2):
O=C1NC(c2ccccc2)Cc2onc(-c3ccccc3)c21 (stereo not drawn) ... 90.9
CC(=O)N1CCN(Cc2oc(C)cc(=O)c2O)CC1 ... 91.6

[Q] Consider the molecule shown here: COc1ccc(Cl)cc1NC(=S)NCCn1cc(Cl)cn1 What is its recorded viability at 28.5 h, 10 µM?
[A] 89.8

====

viability at 28.5 h, 10 µM values for the molecules below.
# measurementNotes: in vitro
# settings: human, hela cells, % viability
Form entry: value (%) — number only.

Answered examples (8):
O=C(NCc1ccccc1OC1CCNC1)c1ccc(-c2cccc(C(F)(F)F)c2)o1 (stereo not shown) [CBK034151T] ... 101
Cc1noc(C)c1CC(=O)Nc1cccc(CN2CCCCCC2)c1 ... 105
Cc1[nH]c(=O)[nH]c(=S)c1C(=O)Nc1ccc(C(F)(F)F)cc1 ... 96.2
COc1ccc([N+](=O)[O-])cc1-c1ccc(-c2nc(-c3ccccc3)c(-c3ccccc3)[nH]2)o1 ... 77.3
OCc1ccc(-n2ncc(-c3ccc(F)cc3F)n2)cc1 ... 97.3
O=C(Nc1ccc(Cl)cc1)N1CCC(n2c(=O)[nH]c3ccccc32)CC1 ... 98.5
Fc1ccccc1CN1CCC(Oc2nccnc2OCc2cccnc2)CC1 [CBK083157T] ... 91.8
CCOc1ccc(S(=O)(=O)Nc2ccc(C(=O)O)c(O)c2)cc1 ... 94.2

[Q] Consider the molecule shown here: O=C(NCCCNc1ccc(C(F)(F)F)cc1[N+](=O)[O-])c1ccc(Cl)cc1 What is its recorded viability at 28.5 h, 10 µM?
[A] 99

====

# measurementNotes: in vitro
# settings: human, hela cells, % viability
Mark each entry condition met if its viability at 28.5 h, 10 µM sits below 90%, and condition not met for all others.

Cc1cc(C)c(OCCOCCN2CCN(C)CC2)c(Cl)c1 [CBK263744G] ... condition not met

[Q] # check: viability at 28.5 h, 10 µM < 90% for Cc1nc(-c2ccccc2)sc1C(=O)C1=C(O)C(=O)N(CCN2CCOCC2)C1c1cccs1 (stereo not drawn) [CBK266520]
[A] condition not met

[Q] # check: viability at 28.5 h, 10 µM < 90% for O=C(Cc1nnc(-c2ccncc2)o1)NCCC1=CCCCC1 [CBK288605]
[A] condition not met

[Q] # check: viability at 28.5 h, 10 µM < 90% for O=C(C1CC1)N1C2CCC(C2)[C@H]1COc1ccc(F)cc1 (stereo partly drawn) [CBK284597]
[A] condition not met

[Q] # check: viability at 28.5 h, 10 µM < 90% for CCCCc1cc(C[C@@H]2C[C@H](NS(C)(=O)=O)C2(C)C)no1 [CBK289702]
[A] condition not met

[Q] # check: viability at 28.5 h, 10 µM < 90% for CCOc1cc(/C=C2\SC(=S)N(Cc3cccnc3)C2=O)ccc1OCc1cccc(F)c1 [CBK264615]
[A] condition not met

[Q] # check: viability at 28.5 h, 10 µM < 90% for O=C(Cn1c(-c2cccs2)cc2cccnc21)N1CCOCC1 [CBK282452]
[A] condition not met

[Q] # check: viability at 28.5 h, 10 µM < 90% for C=CCNC(=O)[C@H]1C=CCN1C(=O)Nc1ccccc1Cl [CBK282348]
[A] condition not met

[Q] # check: viability at 28.5 h, 10 µM < 90% for COc1cc(OC)cc(C(=O)N2CCC3(CC2)CC(=O)c2cc(C)ccc2O3)c1 [CBK167804]
[A] condition not met

====

viability at 28.5 h, 10 µM values for the compounds below.
# measurementNotes: in vitro
# settings: human, hela cells, % viability
# number then unit; no other words

Answered examples (3):
CN(C)S(=O)(=O)c1cc(C(=O)Nc2ccc(O)cc2)c(Cl)cc1Cl [CBK266767] ... 95.4%
Cc1ccc(-c2nnc(-c3cccc(NC(=O)CSCc4ccc(Cl)cc4)c3)o2)cc1 [CBK266789] ... 92.3%
COCC1CCN(C(=O)Nc2ccc(F)c(N3CCCNC3=O)c2)C1 (stereo not drawn) [CBK305487] ... 100%

[Q] Consider the compound shown here: O=S(=O)(c1ccc(F)cc1)N1CCN(c2ncnc3scc(-c4ccccc4)c23)CC1 [CBK264864] What is its recorded viability at 28.5 h, 10 µM?
[A] 103%

[Q] Consider the compound shown here: COc1ccccc1CC(=O)N1CCn2cc(C(F)(F)F)nc2C1 [CBK283806] What is its recorded viability at 28.5 h, 10 µM?
[A] 84.5%
